# IC50 measurements, system: human plasmin (Homo sapiens, UniProt P00747)
# Sequence (P00747 581-810 limits assumed): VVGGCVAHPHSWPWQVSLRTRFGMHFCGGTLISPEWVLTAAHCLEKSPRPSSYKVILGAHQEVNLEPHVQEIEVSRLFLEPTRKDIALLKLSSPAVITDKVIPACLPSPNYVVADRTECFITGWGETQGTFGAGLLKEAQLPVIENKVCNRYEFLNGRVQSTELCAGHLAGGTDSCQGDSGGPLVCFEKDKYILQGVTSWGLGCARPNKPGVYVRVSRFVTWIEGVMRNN
# Sequence (P00747 97-580 partner limits assumed): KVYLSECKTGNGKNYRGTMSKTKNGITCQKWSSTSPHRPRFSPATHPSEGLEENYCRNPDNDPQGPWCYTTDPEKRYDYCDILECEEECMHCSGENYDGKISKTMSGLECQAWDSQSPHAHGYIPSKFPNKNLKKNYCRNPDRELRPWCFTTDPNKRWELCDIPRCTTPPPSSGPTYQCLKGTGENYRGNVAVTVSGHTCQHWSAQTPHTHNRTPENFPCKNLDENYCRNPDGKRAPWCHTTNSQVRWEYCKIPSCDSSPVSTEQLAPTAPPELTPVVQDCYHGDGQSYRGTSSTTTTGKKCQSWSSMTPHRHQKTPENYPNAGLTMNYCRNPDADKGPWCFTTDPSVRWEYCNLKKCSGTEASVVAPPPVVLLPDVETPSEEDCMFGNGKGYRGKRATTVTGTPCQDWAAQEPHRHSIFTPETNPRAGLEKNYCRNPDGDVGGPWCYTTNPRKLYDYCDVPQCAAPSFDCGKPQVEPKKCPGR
Counter-ions that a name gives are not always drawn.
outcome.measure: IC50 (nM)

[1] Cc1nc(C(=O)N[C@H](C)CO)ccc1-c1ccc(C[C@H](NC(=O)[C@H]2CC[C@H](CN)CC2)C(=O)Nc2ccc(-c3nn[nH]n3)cc2)cc1 [Example 29, hydrochloride]
[2] Cc1cc(C(=O)Nc2ccn(C)n2)ncc1-c1ccc(C[C@H](NC(=O)[C@H]2CC[C@H](CN)CC2)C(=O)Nc2ccc(-c3nnn[nH]3)cc2)cc1 [Example 23, hydrochloride]
[3] Cc1nc(C(=O)NC2CCC2)ccc1-c1ccc(C[C@H](NC(=O)[C@H]2CC[C@H](CN)CC2)C(=O)Nc2ccc3[nH]c(=O)[nH]c3c2)cc1 [Example 37, hydrochloride]
## Task Ordering criterion: IC50; begin with the maximum. Returns: the labels arranged in the requested order.
## Result 1, 2, 3
